# System: Wolbachia pipientis
# experiment-description: Anti-Wolbachia Cell-Based Screen
# Assay type: functional
# Set-up: scale not given: in the data most compounds retested in dose-response had high values
# test-context: 5 µM
In all, about 48,000 compounds went through this assay and about 13,000 (27%) showed an effect of 50% or more. Some of the results follow.
quantity-name: Percent Effect (%)
Give the quantity in %, number only.

Completed entries (count: 3):
- compound: "CC(NC(=O)CCNC(=O)c1ccoc1)c1ccccc1 (centres undefined)"
  quantity-name: "Percent Effect"
  readout-unit: "%"
  experimental-value: -1.423
- compound: "CC(=O)N1CCC(c2nccnc2CNC(=O)c2cc[nH]n2)CC1"
  quantity-name: "Percent Effect"
  readout-unit: "%"
  experimental-value: 109.1
- compound: "CCN1CCC(NC(=O)NC2CCOc3ccc(Br)cc32)CC1 (centres undefined)"
  quantity-name: "Percent Effect"
  readout-unit: "%"
  experimental-value: -7.217

Lab book: Percent Effect of CC(C)n1ccnc1C1CCN(C(=O)c2cc[nH]n2)CC1 noted as 7.968

Lab book: Percent Effect of O=C(c1cc[nH]n1)N1CCC(c2nccn2Cc2ccncc2)CC1 noted as -13.9

Lab book: Percent Effect of CN(C)Cc1ccc(C(N)=O)cc1NC(=O)c1cccc(C#N)c1 noted as -8.387

Lab book: Percent Effect of CC(=O)NCc1nccnc1C1CCN(C(=O)c2cc[nH]n2)CC1 noted as 109

Lab book: Percent Effect of CN(Cc1ccsc1)C(=O)CS(=O)(=O)Cc1ccc(Cl)c(Cl)c1 noted as -4.981

Lab book: Percent Effect of CC(C)Oc1ncccc1CNC(=O)c1cc[nH]n1 noted as 6.018

* * *

Entries and their Percent Effect
# System: Wolbachia pipientis
# experiment-description: Anti-Wolbachia Cell-Based Screen
# Assay type: functional
# Parameters: scale not given: in the data most compounds retested in dose-response had high values
# test-context: 5 µM
Among all 48,000 compounds or so, about 13,000 (27%) showed an effect of 50% or more. The list shows a part of the results.
Please format your answer as a value with the unit trailing.

Completed entries (count: 8):
- compound: "COc1ccc(Cl)cc1NCCC(=O)NCCNc1cnccn1"
  experimental-value: "93.92%"
- compound: "CNS(=O)(=O)c1ccc(CN(C)Cc2nc3ccc(F)cc3[nH]2)cc1"
  experimental-value: "112.9%"
- compound: "O=C(Nc1cnccn1)[C@@H]1COC[C@H]2CN(c3ncc(F)cn3)C[C@H]21"
  experimental-value: "-14.05%"
- compound: "CNc1ncc(CN(C)Cc2cc(O)c3cc(F)ccc3n2)cn1"
  experimental-value: "-2.585%"
- compound: "CCCS(=O)(=O)NC(=O)c1ccc(Br)o1"
  experimental-value: "-3.964%"
- compound: "COc1cnc(N2C[C@H](CO)C[C@H](CN3CCOCC3)C2)nc1"
  experimental-value: "-6.58%"
- compound: "Cc1nc(CCN)cc(N(C)Cc2nc3ccc(F)cc3[nH]2)n1"
  experimental-value: "-5.934%"
- compound: "CC(C)N1CC2(CCCN(c3ncc(Cl)cc3F)C2)CCC1=O (stereo not drawn)"
  experimental-value: "-5.351%"

Lab book: Percent Effect of CN1CCn2c(-c3ccccc3)cnc2C12CCN(CC1CC1)CC2.O=C(O)C(F)(F)F.O=C(O)C(F)(F)F.O=C(O)C(F)(F)F noted as -7.532%

Lab book: Percent Effect of Cc1nc(Nc2cnccn2)cc(C2CCCN2)n1.Cl (stereo not drawn) noted as 92.06%

Lab book: Percent Effect of COc1ccc(Cl)cc1NCC(=O)NCCNc1cnccn1 noted as 7.849%

Lab book: Percent Effect of CCN1CC2(CCC1=O)CCN(C(=O)C(O)c1cccc(Cl)c1)CC2 (stereo not drawn) noted as -4.5%

Lab book: Percent Effect of CC(=O)NCC(=O)N1CC[C@H](OCC2CC2)[C@@H]1Cc1cccnc1.O=C(O)C(F)(F)F noted as -17.55%

Lab book: Percent Effect of CCc1nc(NCCCn2cccn2)c2c(n1)c(C)nn2C noted as 10.76%

Lab book: Percent Effect of CN(C)c1cccc(C(=O)NCC(O)c2cccs2)c1 (stereo not drawn) noted as -6.039%

Lab book: Percent Effect of CCO[C@@H]1CCN(C(=O)c2ccc[nH]2)[C@@H]1Cc1cccnc1.O=C(O)C(F)(F)F noted as 0.6367%

Data provenance: ChEMBL document CHEMBL3988442
